Molecular target: human Kir6.2/SUR2B KATP channel (Homo sapiens, UniProt O60706)
Construct: expressed in transfected cells
Sequence (O60706 1-1549 isoform O60706-2): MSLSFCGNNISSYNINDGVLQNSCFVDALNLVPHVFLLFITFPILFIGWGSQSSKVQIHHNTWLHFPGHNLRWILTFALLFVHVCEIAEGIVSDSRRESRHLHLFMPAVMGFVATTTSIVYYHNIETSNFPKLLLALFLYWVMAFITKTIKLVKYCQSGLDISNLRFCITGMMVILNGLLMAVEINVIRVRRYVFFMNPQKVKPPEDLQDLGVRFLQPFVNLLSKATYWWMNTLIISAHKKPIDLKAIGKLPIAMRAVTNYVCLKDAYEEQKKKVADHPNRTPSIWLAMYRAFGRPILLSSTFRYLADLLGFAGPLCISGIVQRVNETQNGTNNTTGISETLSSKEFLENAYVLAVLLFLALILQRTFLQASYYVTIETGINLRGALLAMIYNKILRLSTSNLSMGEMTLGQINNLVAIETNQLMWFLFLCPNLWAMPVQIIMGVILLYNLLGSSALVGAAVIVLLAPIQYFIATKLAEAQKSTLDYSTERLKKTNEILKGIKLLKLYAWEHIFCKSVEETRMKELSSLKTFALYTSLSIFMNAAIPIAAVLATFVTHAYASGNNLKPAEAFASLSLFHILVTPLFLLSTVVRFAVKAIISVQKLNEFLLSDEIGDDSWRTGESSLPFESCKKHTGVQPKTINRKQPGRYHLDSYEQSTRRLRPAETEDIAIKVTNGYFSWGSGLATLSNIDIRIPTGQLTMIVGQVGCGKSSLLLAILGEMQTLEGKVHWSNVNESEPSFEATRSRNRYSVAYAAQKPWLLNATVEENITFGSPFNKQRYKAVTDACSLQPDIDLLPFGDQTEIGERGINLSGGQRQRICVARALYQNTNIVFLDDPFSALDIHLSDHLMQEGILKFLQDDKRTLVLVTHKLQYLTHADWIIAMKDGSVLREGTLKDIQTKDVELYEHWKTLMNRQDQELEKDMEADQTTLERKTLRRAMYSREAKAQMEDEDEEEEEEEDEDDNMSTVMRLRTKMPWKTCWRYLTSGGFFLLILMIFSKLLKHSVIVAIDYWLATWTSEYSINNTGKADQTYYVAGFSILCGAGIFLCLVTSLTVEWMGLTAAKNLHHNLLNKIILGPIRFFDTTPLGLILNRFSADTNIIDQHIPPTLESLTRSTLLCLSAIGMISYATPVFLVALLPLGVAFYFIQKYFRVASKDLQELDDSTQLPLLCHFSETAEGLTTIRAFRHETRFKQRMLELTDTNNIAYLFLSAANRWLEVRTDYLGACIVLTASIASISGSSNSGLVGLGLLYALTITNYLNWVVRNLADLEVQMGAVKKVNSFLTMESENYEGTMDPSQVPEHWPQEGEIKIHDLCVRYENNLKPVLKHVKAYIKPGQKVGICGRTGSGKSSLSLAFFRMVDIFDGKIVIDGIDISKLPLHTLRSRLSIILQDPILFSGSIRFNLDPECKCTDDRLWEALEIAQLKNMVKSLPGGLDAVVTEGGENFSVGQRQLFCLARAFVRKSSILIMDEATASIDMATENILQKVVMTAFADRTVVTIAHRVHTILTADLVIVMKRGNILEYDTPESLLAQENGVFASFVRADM
Sequence (Q14654 whole entry partner): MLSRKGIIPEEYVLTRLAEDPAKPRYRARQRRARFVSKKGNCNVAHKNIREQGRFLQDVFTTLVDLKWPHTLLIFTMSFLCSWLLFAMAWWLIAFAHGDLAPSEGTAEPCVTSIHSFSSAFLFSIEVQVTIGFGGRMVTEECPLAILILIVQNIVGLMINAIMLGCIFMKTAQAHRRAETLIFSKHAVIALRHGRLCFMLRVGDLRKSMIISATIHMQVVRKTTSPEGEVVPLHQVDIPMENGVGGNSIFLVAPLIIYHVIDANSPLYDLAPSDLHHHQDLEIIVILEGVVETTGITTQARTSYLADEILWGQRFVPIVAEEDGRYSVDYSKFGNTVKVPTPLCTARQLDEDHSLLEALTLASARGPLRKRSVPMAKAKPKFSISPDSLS
Experiment: FLIPR membrane potential assay in HEK-Kir6.2/SUR2B cells
Type: cell-based
Settings: ability to modulate KATP channel; HEK-Kir6.2/SUR2B cells; normalized to 100 uM pinacidil; read-out: EC50 (μM) (mean ± SEM)
measurement-type: EC50

>>> result("CC1(C)Oc2ccc(C#N)cc2[C@@H](N2CCCC2=O)[C@@H]1OP(=O)(O)O")
"> 100 µM"

* * *

Experiment: Toxicokinetics after escalating intravenous doses of CKLP1 in beagles
Type: in vivo, beagle dog
Conditions: male, beagle, dog, in vivo, iv, 0.5 mg/kg
Method: Two beagles (one male and one female) were intravenously injected with escalating doses of CKPL1 (0.05 mg/kg, 0.5 mg/kg, 1.5 mg/kg, 3 mg/kg, and 5 mg/kg) to assess the toxicity of CKLP1. […] The following parameters and endpoints were evaluated: mortality, clinical observations, body and organ weights, and food consumption. […] Toxicokinetics (TK) were determined based on the individual exposures for each animal on each sampled study day (days 1, 3, 8, 10, and 14). […]
measurement-type: half-life (h)

>>> numeric_readout("CC1(C)Oc2ccc(C#N)cc2[C@@H](N2CCCC2=O)[C@@H]1OP(=O)(O)O [CKLP1]")
2.84
